- Test target: RET(KD: 658-1114 G810R) (Homo sapiens, UniProt P07949, G810R)
- Construct: 658-1114; expressed in transfected cells; host or cells: 293T.165 (293T cells, generated in-house)
- Sequence (P07949 658-1114 G810R): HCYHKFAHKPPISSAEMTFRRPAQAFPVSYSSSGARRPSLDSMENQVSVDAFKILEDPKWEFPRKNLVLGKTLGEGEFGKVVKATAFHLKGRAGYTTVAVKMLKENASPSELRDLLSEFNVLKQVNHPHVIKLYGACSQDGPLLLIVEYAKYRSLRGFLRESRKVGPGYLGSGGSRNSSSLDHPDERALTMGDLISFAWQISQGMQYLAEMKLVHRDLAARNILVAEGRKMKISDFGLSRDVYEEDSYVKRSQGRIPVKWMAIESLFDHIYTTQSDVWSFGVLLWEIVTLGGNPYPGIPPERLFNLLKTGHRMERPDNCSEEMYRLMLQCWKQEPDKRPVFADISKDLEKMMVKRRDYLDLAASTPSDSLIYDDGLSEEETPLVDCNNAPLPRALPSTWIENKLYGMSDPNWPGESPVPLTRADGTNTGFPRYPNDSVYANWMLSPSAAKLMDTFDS
- Assay procedure: HiBiT-Degradation, RET G810R degradation assay (Nano-Glo HiBiT Lytic), 293T.165 cells
- Format: cell-based
- Condition set: 6.0 hours, half-maximal degradation concentration, read-out: 293T.165 RET(KD: 658-1114 G810R) 6.0 hours (DC50)
Listing of entries alongside the reported DC50.

Guide cases for DC50, answers given:
Compound | Result
CCC1(C(=O)NC(C)C)CCN(c2ccc(-c3nc(-c4cnn([C@H]5CC[C@H](N6CCC(c7ccc(N[C@H]8CCC(=O)NC8=O)cc7F)CC6)CC5)c4)cn4ncc(C#N)c34)cn2)CC1 (single isomer, unassigned) | < 50 nM
CCC1(C(=O)NC(C)C)CCN(c2ccc(-c3nc(-c4cnn(C5CCN(C(=O)CN6C7CCC6CC(c6ccc(NC8CCC(=O)NC8=O)cc6)C7)CC5)c4)cn4ncc(C#N)c34)cn2)CC1 (stereo not drawn) | < 100 nM

Exam item: Report DC50, nothing else, for this compound: CCC1(C(=O)NC(C)C)CCN(c2ccc(-c3nc(-c4cnn(C5CCN(C(=O)CC6(O)CCN(c7ccc(NC8CCC(=O)NC8=O)cc7F)CC6)CC5)c4)cn4ncc(C#N)c34)cn2)CC1 (stereo not drawn)
Marked response: < 50 nM
